Reference source for all entries: patent US20240366589A1

Target: Human NHE3 (Homo sapiens)
Construct: expressed in transfected cells; host or cells: Opossum kidney (OK) cells (ATCC), electroporation
Sequence (P48764 26-834): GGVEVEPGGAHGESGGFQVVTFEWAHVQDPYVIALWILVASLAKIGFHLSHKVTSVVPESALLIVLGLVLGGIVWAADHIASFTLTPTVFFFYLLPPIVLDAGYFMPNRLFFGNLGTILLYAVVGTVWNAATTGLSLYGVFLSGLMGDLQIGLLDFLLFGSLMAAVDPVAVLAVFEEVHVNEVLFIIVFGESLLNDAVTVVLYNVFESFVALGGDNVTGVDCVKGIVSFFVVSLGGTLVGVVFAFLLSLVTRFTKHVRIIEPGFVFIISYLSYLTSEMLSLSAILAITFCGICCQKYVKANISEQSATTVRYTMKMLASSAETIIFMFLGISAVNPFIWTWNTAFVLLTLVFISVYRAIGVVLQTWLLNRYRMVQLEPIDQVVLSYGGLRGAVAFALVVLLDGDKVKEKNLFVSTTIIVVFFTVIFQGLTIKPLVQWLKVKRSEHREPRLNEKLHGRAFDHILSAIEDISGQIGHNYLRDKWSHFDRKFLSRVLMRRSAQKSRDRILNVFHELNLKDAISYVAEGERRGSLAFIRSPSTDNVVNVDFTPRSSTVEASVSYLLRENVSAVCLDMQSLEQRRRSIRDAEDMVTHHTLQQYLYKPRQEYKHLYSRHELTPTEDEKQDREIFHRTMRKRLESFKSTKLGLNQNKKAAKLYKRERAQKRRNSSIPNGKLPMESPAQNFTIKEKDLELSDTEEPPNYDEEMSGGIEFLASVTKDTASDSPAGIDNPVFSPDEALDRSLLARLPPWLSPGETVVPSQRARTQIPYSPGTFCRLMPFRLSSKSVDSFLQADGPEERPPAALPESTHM
Experiment: Cell-based NHE3 activity under prompt conditions (OK cells, BCECF pH recovery), human NHE3
Conditions: prompt conditions
outcome-measure: Prompt Human NHE3 pIC50

Below, 2 compounds whose answers are already recorded.
* CN1Cc2c(Cl)cc(Cl)cc2[C@H](c2cccc(S(=O)(=O)NCCOCCOCCNC(=O)CCC(CCC(=O)NCCOCCOCCNS(=O)(=O)c3cccc([C@@H]4CN(C)Cc5c(Cl)cc(Cl)cc54)c3)(CCC(=O)NCCOCCOCCNS(=O)(=O)c3cccc([C@@H]4CN(C)Cc5c(Cl)cc(Cl)cc54)c3)NC(=O)NC[C@H](O)[C@@H](O)[C@H](O)[C@H](O)CO)c2)C1 | 7.27
* CN1Cc2c(Cl)cc(Cl)cc2[C@H](c2cccc(S(=O)(=O)NCCOCCOCCNC(=O)N(C)CCCN(CCCN(C)C(=O)NCCOCCOCCNS(=O)(=O)c3cccc([C@@H]4CN(C)Cc5c(Cl)cc(Cl)cc54)c3)CCCN(C)C(=O)NCCOCCOCCNS(=O)(=O)c3cccc([C@@H]4CN(C)Cc5c(Cl)cc(Cl)cc54)c3)c2)C1 | 8.10

Now for another entry.
Can you share its Prompt Human NHE3 pIC50? I mean this compound: `CN1Cc2c(Cl)cc(Cl)cc2[C@H](c2cccc(S(=O)(=O)NCCOCCOCCNC(=O)NCCC(N)(CCNC(=O)NCCOCCOCCNS(=O)(=O)c3cccc([C@@H]4CN(C)Cc5c(Cl)cc(Cl)cc54)c3)CCNC(=O)NCCOCCOCCNS(=O)(=O)c3cccc([C@@H]4CN(C)Cc5c(Cl)cc(Cl)cc54)c3)c2)C1`
8.13

====

List of Urine Na % of control values.
Test system: absorption of sodium from the intestinal lumen
Assay: Inhibition of intestinal sodium absorption: urinary sodium (uNa) 16 h after single oral dose in rats
Assay type: in vivo, rat
Details: oral gavage, dose 3 mg/kg, 16 h post-dose
Please don't drop the unit; write it after the number.

* CN1Cc2c(Cl)cc(Cl)cc2[C@H](c2cccc(S(=O)(=O)NCCOCCOCCNC(=O)CCC(CCC(=O)NCCOCCOCCNS(=O)(=O)c3cccc([C@@H]4CN(C)Cc5c(Cl)cc(Cl)cc54)c3)(CCC(=O)NCCOCCOCCNS(=O)(=O)c3cccc([C@@H]4CN(C)Cc5c(Cl)cc(Cl)cc54)c3)NC(=O)NC[C@H](O)[C@@H](O)[C@H](O)[C@H](O)CO)c2)C1 | 34%

Can you share its Urine Na % of control? I mean this molecule: `CN1Cc2c(Cl)cc(Cl)cc2[C@H](c2cccc(S(=O)(=O)NCCOCCOCCNC(=O)CCC(CCC(=O)NCCOCCOCCNS(=O)(=O)c3cccc([C@@H]4CN(C)Cc5c(Cl)cc(Cl)cc54)c3)(CCC(=O)NCCOCCOCCNS(=O)(=O)c3cccc([C@@H]4CN(C)Cc5c(Cl)cc(Cl)cc54)c3)NC(=O)N(C)C[C@H](O)[C@@H](O)[C@H](O)[C@H](O)CO)c2)C1`
45%

====

Test system: phosphorus and calcium levels in the urine of rats
Experiment: Urinary excretion of phosphate and calcium in rats (16 h overnight urine)
Format: in vivo, rat
Details: rats, oral gavage, dose 10 mg/kg, 16 h post-dose
List of Urine P % of control values.

• N=C(N)Nc1nc(-c2cccc(N3CCN(CCOCCOCCOCCNC(=O)NCCOCCOCCNC(=O)CN(CCN(CC(=O)O)CC(=O)NCCOCCOCCNC(=O)NCCOCCOCCOCCN4CCN(c5cccc(-c6nc(NC(=N)N)nc7ccc(Cl)cc67)c5)CC4)CC(=O)O)CC3)c2)c2cc(Cl)ccc2n1 [compound 41] = 133%
• CN(CC(=O)NCCOCCOCCNC(=O)NCCOCCOCCOCCN1CCN(c2ccc(-c3nc(N=C(N)N)nc4ccc(Cl)cc34)cc2)CC1)CC(=O)NCCOCCOCCNC(=O)NCCOCCOCCOCCN1CCN(c2ccc(-c3nc(N=C(N)N)nc4ccc(Cl)cc34)cc2)CC1 [compound 45] = 109%

Can you share its Urine P % of control? I mean this compound: CN1Cc2c(Cl)cc(Cl)cc2[C@H](c2cccc(S(=O)(=O)NCCOCCOCCOCCNC(=O)NCCN3CCN(c4nc(N5CCN(CCNC(=O)NCCOCCOCCOCCNS(=O)(=O)c6cccc([C@@H]7CN(C)Cc8c(Cl)cc(Cl)cc87)c6)CC5)nc(N5CCN(CCNC(=O)NCCOCCOCCOCCNS(=O)(=O)c6cccc([C@@H]7CN(C)Cc8c(Cl)cc(Cl)cc87)c6)CC5)n4)CC3)c2)C1 [compound 70]
83%

====

Target: Rat NHE3 (Rattus norvegicus)
Construct: expressed in transfected cells; host or cells: Opossum kidney (OK) cells (ATCC), electroporation
Sequence (P26433 29-831): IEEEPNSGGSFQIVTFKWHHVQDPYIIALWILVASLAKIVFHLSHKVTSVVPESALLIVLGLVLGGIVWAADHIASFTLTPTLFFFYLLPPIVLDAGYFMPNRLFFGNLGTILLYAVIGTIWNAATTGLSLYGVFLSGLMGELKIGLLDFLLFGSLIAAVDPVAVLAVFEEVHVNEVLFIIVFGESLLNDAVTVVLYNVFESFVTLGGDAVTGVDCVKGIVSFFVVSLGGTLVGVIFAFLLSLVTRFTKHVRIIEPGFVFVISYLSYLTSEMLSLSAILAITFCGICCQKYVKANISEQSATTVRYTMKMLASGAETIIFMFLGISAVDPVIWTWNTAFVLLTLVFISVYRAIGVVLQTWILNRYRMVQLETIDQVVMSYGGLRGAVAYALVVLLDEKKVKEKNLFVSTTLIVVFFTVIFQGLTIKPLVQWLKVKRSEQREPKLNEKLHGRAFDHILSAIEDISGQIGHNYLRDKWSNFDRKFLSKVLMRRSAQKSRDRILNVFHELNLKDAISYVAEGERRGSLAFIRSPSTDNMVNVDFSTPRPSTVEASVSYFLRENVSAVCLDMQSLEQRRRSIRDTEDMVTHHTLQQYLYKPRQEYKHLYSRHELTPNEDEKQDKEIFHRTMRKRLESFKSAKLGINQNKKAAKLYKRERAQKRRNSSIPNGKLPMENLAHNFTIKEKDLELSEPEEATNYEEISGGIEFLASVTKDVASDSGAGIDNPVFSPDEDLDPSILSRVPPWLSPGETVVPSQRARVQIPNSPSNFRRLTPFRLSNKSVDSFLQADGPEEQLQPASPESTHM
Assay: Cell-based NHE3 activity under prompt conditions (OK cells, BCECF pH recovery), rat NHE3
Conditions: prompt conditions; read-out: Prompt Rat NHE3 pIC50 (converted)
outcome-measure: IC50 (nM)
# output: bare number, implied unit nM

Can you share its IC50? I mean this compound: `CN1Cc2c(Cl)cc(Cl)cc2[C@H](c2cccc(S(=O)(=O)NCCOCCOCCN(C)C(=O)NCCCN(CCCNC(=O)N(C)CCOCCOCCNS(=O)(=O)c3cccc([C@@H]4CN(C)Cc5c(Cl)cc(Cl)cc54)c3)CCCNC(=O)N(C)CCOCCOCCNS(=O)(=O)c3cccc([C@@H]4CN(C)Cc5cc(Cl)cc(Cl)c54)c3)c2)C1`
794

Can you share its IC50? I mean this compound: `CN1Cc2c(Cl)cc(Cl)cc2[C@H](c2cccc(S(=O)(=O)NCCOCCOCCNCCCC(CCC(=O)NCCOCCOCCNS(=O)(=O)c3cccc([C@@H]4CN(C)Cc5c(Cl)cc(Cl)cc54)c3)(CCC(=O)NCCOCCOCCNS(=O)(=O)c3cccc([C@@H]4CN(C)Cc5c(Cl)cc(Cl)cc54)c3)NC(=O)N3CCN(CCOCCO)CC3)c2)C1`
79.4

Can you share its IC50? I mean this compound: `CN1Cc2c(Cl)cc(Cl)cc2[C@H](c2cccc(S(=O)(=O)NCCOCCOCCOCCNC(=O)CCN(CCC(=O)NCCOCCOCCOCCNS(=O)(=O)c3cccc([C@@H]4CN(C)Cc5c(Cl)cc(Cl)cc54)c3)CCC(=O)NCCOCCOCCOCCNS(=O)(=O)c3cccc([C@@H]4CN(C)Cc5c(Cl)cc(Cl)cc54)c3)c2)C1`
316

====

List of Prompt Human NHE3 pIC50 values.
Biological target: Human NHE3 (Homo sapiens, UniProt P48764)
Construct: expressed in transfected cells; host or cells: Opossum kidney (OK) cells (ATCC), electroporation
Experiment: Cell-based NHE3 activity under prompt conditions (OK cells, BCECF pH recovery), human NHE3
Conditions: prompt conditions
I'd appreciate a reply containing only the number, no unit.

Below, 3 compounds whose answers are already recorded.
• CN(C)[C@H]1Cc2c(Cl)cc(Cl)cc2[C@@H]1Oc1ccc(S(=O)(=O)NCCOCCOCCNC(=O)NCCCCNC(=O)NCCOCCOCCNS(=O)(=O)c2ccc(O[C@H]3c4cc(Cl)cc(Cl)c4C[C@@H]3N(C)C)cc2)cc1 = 8.30
• O=C(NCCCCNC(=O)NCCOCCOCCOCCNS(=O)(=O)c1ccc(O[C@H]2c3ccccc3C[C@@H]2N2CCCCC2)cc1)NCCOCCOCCOCCNS(=O)(=O)c1ccc(O[C@H]2c3ccccc3C[C@@H]2N2CCCCC2)cc1 (racemic) [compound 51] = 7.90
• CN1Cc2c(Cl)cc(Cl)cc2[C@H](c2cccc(S(=O)(=O)NCCOCCOCCNC(=O)CCC(CCC(=O)NCCOCCOCCNS(=O)(=O)c3cccc([C@@H]4CN(C)Cc5c(Cl)cc(Cl)cc54)c3)(CCC(=O)NCCOCCOCCNS(=O)(=O)c3cccc([C@@H]4CN(C)Cc5c(Cl)cc(Cl)cc54)c3)NC(=O)N(C)C[C@H](O)[C@@H](O)[C@H](O)[C@H](O)CO)c2)C1 = 7.10

Can you share its Prompt Human NHE3 pIC50? I mean this compound: `CN(C)[C@H]1Cc2c(Cl)cc(Cl)cc2[C@@H]1Oc1ccc(S(=O)(=O)NCCOCCOCCNC(=O)NCCCCNC(=O)NCCOCCOCCN(C)S(=O)(=O)c2ccc(O[C@H]3c4cc(Cl)cc(Cl)c4C[C@@H]3N(C)C)cc2)cc1`
8.20
